- Test system: acetylation of the histone H3K23 marker in U2OS cells
- Procedure Summary: Histone H3 Lysine 23 Acetylation Biomarker Assay
- Format: cell-based
- Test Context: Homo sapiens; H3K23ac, U2OS cells, 24 hours; read-out: IC50
- Protocol: Compounds may be tested for their ability to inhibit acetylation of the histone H3K23 marker in the following assay: The cell line U2OS was seeded at a density of 9,000 cells per well in 96 well optical quality tissue culture plates in RPMI medium and 10% foetal bovine serum, and allowed to adhere for 24 hours under standard culture conditions (37 degree Celsius, 5% CO2). […] Plates were washed as previously and read on a PerkinElmer Phenix high content imaging platform.
Listing of recorded IC50 by entry.
Measurement Kind: IC50 (nM)

1. COc1ccc(Cl)cc1-c1cc(NS(=O)(=O)c2c(OC)cccc2OC)no1 = 141
2. COc1ccc(OC(C)C)c(-c2cc(NS(=O)(=O)c3c(OC)cccc3OC)no2)c1 = 132
3. COCc1ccc(OC)cc1-c1cc(NS(=O)(=O)c2c(OC)cccc2OC)no1 = 69.3
4. COc1ccc(OC)c(-c2nnc(NS(=O)(=O)c3c(OC)cccc3OC)s2)c1 = 275
5. COCc1ccc(OC)c(-c2cc(NS(=O)(=O)Cc3ccccc3)no2)c1 = 187
6. CCOc1ccc(OC)cc1-c1cc(NS(=O)(=O)c2c(OC)cccc2OC)no1 = 117
7. COc1ccccc1-c1nnc(NS(=O)(=O)c2c(OC)cccc2OC)s1 = 2260
8. COc1cccc(OC)c1S(=O)(=O)Nc1nnc(-c2cc(Cl)ccc2OC(C)C)s1 = 474
9. COc1ccc(-n2cccn2)cc1-c1cc(NS(=O)(=O)c2c(OC)cccc2OC)no1 = 173
10. COc1ccc(-c2ccnn2C)cc1-c1cc(NS(=O)(=O)c2c(OC)cccc2OC)no1 = 634
11. COCc1ccc(OC)cc1-c1nnc(NS(=O)(=O)c2c(OC)cccc2OC)s1 = 3940
12. CCc1ccc(OC)cc1-c1cc(NS(=O)(=O)c2c(OC)cccc2OC)no1 = 178
13. COc1ccc(-c2ncco2)cc1-c1cc(NS(=O)(=O)c2c(OC)cccc2OC)no1 = 1530

* * *

- Test system: histone H2A.Z Lysine 7 acetylation marker in U2OS cells
- Procedure Summary: H2A.Z Lysine 7 Acetylation Biomarker Assay
- Assay type: cell-based
- Test Context: Homo sapiens; H2A.ZK7ac, U2OS cells, serum free medium, 24 hours; read-out: IC50
Measurement Kind: IC50 (µM)

1) COc1ccccc1-c1nnc(NS(=O)(=O)c2c(OC)cccc2OC)s1 = 29.3
2) CCOc1ccc(OC)cc1-c1cc(NS(=O)(=O)c2c(OC)cccc2OC)no1 = 1.77
3) COc1ccc(-c2ncco2)cc1-c1cc(NS(=O)(=O)c2c(OC)cccc2OC)no1 = 19.9
4) COc1ccc(Cl)cc1-c1cc(NS(=O)(=O)c2c(OC)cccc2OC)no1 = 12.1
5) COc1ccc(OC(C)C)c(-c2cc(NS(=O)(=O)c3c(OC)cccc3OC)no2)c1 = 2.5
6) COCc1ccc(OC)cc1-c1nnc(NS(=O)(=O)c2c(OC)cccc2OC)s1 = 27.2
7) COc1ccc(-n2cccn2)cc1-c1cc(NS(=O)(=O)c2c(OC)cccc2OC)no1 = 17.1
8) CCc1ccc(OC)cc1-c1cc(NS(=O)(=O)c2c(OC)cccc2OC)no1 = 9.99
9) COc1ccc(CC2CCCCC2)cc1-c1cc(NS(=O)(=O)c2c(OC)cccc2OC)no1 = 5.42

* * *

Listing of recorded IC50 by entry.
- System: acetylation of the histone H3K23 marker in U2OS cells
- Procedure Summary: Histone H3 Lysine 23 Acetylation Biomarker Assay
- Type: cell-based
- Test Context: Homo sapiens, U2OS, 24 h
Measurement Kind: IC50 (nM)

1) COc1ccc(C2CC2)cc1-c1cc(NS(=O)(=O)c2c(OC)cccc2OC)no1 [Example 8] = 51.8
2) COc1ccccc1-c1cc(NS(=O)(=O)c2c(OC)cccc2OC)no1 [Example 56] = 2070
3) COc1ccc(OC)c(-c2cc(NS(=O)(=O)c3c(OC)cccc3OC)no2)c1 [Example 7] = 49.1

* * *

- Test system: acetylation of the histone H3K23 marker in U2OS cells
- Procedure Summary: Histone H3 Lysine 23 Acetylation Biomarker Assay
- Format: cell-based
- Test Context: Homo sapiens, U2OS, 24 h
pIC50: −log10 of the molar value.
Measurement Kind: pIC50

1. COc1ccccc1-c1cc(NS(=O)(=O)CCc2ccccc2)no1 [Example 4] = < 5.00
2. COc1ccccc1-c1cc(NS(=O)(=O)Nc2ccccc2)no1 [Example 116] = < 4.70
3. COc1ccccc1-c1cc(NS(=O)(=O)Cc2ccccc2)no1 [Example 2] = < 5.00
